target: CDK2/cyclin A (Homo sapiens, UniProt P24941); construct: cyclin A: E. coli, then limited proteolysis; test: Inhibition of CDK2/Cyclin A retinoblastoma kinase activity; conditions: apparent Ki, Rb fragment substrate
pKi: −log10 of the molar value.
measured property: pKi

A. Cc1ccsc1C(=O)c1sc(Nc2ccc(S(N)(=O)=O)cc2)nc1N [C(48)*, reference compound]
B. Nc1nc(Nc2ccc(S(=O)(=O)NCCCN3CCCC3=O)cc2)sc1C(=O)c1c(F)cccc1F [A(25)]
Given A and B , report the one with the higher recorded pKi. // respond with label for picked entry B
(B: 8.39, A: 7.96)

I. Nc1nc(Nc2ccc(S(=O)(=O)N3CCNCC3)cc2)sc1C(=O)c1c(F)cccc1F [Example A(1)]
II. Cc1ccc(CCNS(=O)(=O)c2ccc(Nc3nc(N)c(C(=O)c4c(F)cccc4F)s3)cc2)cc1 [Example A(18)]
// select label with min value of measured pKi from [ I , II ] // respond with label for picked entry I
